Structures can show the parent of a compound that is named as a salt.
In this section we review reported melting point values for a set of compounds.

Some solved cases for reference:
Cc1ccc(C)c(Sc2ccc([N+](=O)[O-])cc2S(=O)(=O)N2CCNCC2)c1 [Compound 122]
142 to 145 °C
CC1CN(S(=O)(=O)c2cc(C#N)ccc2Sc2cc(Cl)ccc2Cl)CC(C)N1 (stereo not drawn) (as salt: hydrochloride) [Compound 79]
176 to 180 °C

Short answer for Cc1ccc(C)c(Sc2ccc([N+](=O)[O-])cc2S(=O)(=O)N2CCSCC2)c1 [Compound 116] : melting point was 130 to 137 °C

melting point reported for this compound N#Cc1ccc(Oc2cc(F)ccc2F)c(S(=O)(=O)N2CCNCC2)c1 (as salt: hydrochloride) [Compound 52] : 125 to 143 °C

response.value for N#Cc1ccc(Sc2cc(Cl)ccc2Cl)c(S(=O)(=O)N2CCOCC2)c1 [Compound 82] (field: melting point) = 216 to 219 °C

Lab note: measured melting point of Cc1ccc(C)c(Oc2ccc([N+](=O)[O-])cc2S(=O)(=O)N2CCSCC2)c1 [Compound 117] was 144 to 147 °C
